Record form. Attribute: residual activity. Fill in for each entry.
- measurement.target: Activin receptor type-1B (Homo sapiens)
- assay.conditions: at 1 µM
// note: answer is a bare numeric in %

Asked: Quick check: residual activity of C[S+]([O-])c1ccc(-c2nc(-c3ccc(F)cc3)c(-c3ccncc3)[nH]2)cc1 (configuration not stated) ?
Given back: 87

Asked: For O=C1Nc2ccc3ncsc3c2/C1=C/c1c[nH]cn1 , what is its reported residual activity?
Given back: 85

Asked: Field request: residual activity | item: COc1ccc2c(c[n+](C)c3c4cc5c(cc4ccc23)OCO5)c1OC
Given back: 132

Asked: Quick one: residual activity for CCn1cnc2c(Nc3cccc(Cl)c3)nc(N[C@@H]3CCCC[C@@H]3N)nc21 ?
Given back: 123

Asked: Query: residual activity; subject: COc1cc2ncnc(Nc3ccc(OCc4ccccc4)cc3)c2cc1OC
Given back: 135

Asked: // query residual activity value for entry COC(=O)[C@@]1(O)C[C@H]2O[C@]1(C)n1c3ccccc3c3c4c(c5c6ccccc6n2c5c31)C(=O)NC4
Given back: 24

Asked: // returns reported residual activity for input O=c1[nH]c2ccccc2n1C1CCN(Cc2ccc(-c3nc4cc5[nH]cnc5cc4nc3-c3ccccc3)cc2)CC1
Given back: 117

###

- measurement.target: Platelet-derived growth factor receptor alpha (Homo sapiens)
- assay.conditions: at 10 µM
measure: residual activity (%)
Give the number; % is assumed, so skip it.

Asked: // lookup residual activity | system=Platelet-derived growth factor receptor alpha (Homo sapiens) | key= O=[N+]([O-])/C=C/c1ccc2c(c1)OCO2
Given back: 105

Asked: Notebook: pull reported residual activity for Platelet-derived growth factor receptor alpha (Homo sapiens), entry c1cc(-c2cnn3cc(-c4ccc(OCCN5CCCCC5)cc4)cnc23)ccn1
Given back: 3

Asked: Write down the reported residual activity of O=C1Nc2ccc3ncsc3c2/C1=C/c1c[nH]cn1 , test system: Platelet-derived growth factor receptor alpha (Homo sapiens).
Given back: 20

Asked: Item: CCc1nc(-c2ccc(OC)cc2)[nH]c1-c1ccncc1 Test system: Platelet-derived growth factor receptor alpha (Homo sapiens) Read-out: residual activity Value: ?
Given back: 109

Asked: Identify the measured residual activity of COc1cc(OC)c(/C=C2\C(=O)Nc3ccccc32)c(OC)c1 for Platelet-derived growth factor receptor alpha (Homo sapiens).
Given back: 69

Asked: For the record O=C1c2ccccc2-c2nc3nnnn3nc21 , what value of residual activity is listed for Platelet-derived growth factor receptor alpha (Homo sapiens)?
Given back: 111

###

- measurement.target: Activated CDC42 kinase 1 (Homo sapiens) (UniProt Q07912)
- Sequence (Q07912 whole entry, looked up): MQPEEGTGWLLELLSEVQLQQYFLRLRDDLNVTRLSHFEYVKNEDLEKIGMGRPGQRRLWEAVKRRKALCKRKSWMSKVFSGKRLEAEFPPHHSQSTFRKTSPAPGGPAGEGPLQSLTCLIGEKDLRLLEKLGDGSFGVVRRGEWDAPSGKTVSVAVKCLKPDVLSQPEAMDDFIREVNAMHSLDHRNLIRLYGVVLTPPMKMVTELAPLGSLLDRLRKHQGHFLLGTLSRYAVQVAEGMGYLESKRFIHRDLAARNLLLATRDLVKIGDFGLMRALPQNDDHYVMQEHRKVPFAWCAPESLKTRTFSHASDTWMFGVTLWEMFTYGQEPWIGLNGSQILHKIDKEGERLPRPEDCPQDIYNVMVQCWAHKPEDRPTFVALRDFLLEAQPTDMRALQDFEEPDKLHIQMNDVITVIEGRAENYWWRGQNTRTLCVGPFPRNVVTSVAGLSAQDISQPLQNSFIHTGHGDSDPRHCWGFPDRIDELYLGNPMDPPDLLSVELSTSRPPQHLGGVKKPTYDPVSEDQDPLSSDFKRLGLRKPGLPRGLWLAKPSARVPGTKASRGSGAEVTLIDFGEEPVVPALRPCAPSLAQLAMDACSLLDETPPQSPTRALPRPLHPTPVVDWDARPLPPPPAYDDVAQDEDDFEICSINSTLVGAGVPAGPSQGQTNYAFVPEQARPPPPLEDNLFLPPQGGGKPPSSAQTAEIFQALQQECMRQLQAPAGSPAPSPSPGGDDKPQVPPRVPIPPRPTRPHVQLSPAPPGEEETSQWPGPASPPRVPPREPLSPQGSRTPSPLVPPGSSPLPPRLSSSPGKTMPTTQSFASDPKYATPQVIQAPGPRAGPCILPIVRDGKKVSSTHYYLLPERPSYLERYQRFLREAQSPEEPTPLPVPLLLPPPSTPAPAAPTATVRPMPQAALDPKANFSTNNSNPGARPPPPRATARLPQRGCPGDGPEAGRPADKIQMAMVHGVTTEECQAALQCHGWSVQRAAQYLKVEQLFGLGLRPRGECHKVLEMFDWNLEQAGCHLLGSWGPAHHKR
- assay.conditions: at 10 µM
measure: residual activity (%)
Number only, in %; omit the unit.

Asked: Provide the documented residual activity with Activated CDC42 kinase 1 (Homo sapiens) (UniProt Q07912) as the system for COC(=O)[C@@]1(O)C[C@H]2O[C@]1(C)n1c3ccccc3c3c4c(c5c6ccccc6n2c5c31)C(=O)NC4
Given back: 0

Asked: Tell me reported residual activity for COc1cc2ncnc(Nc3ccc(OCc4ccccc4)cc3)c2cc1OC , tested with Activated CDC42 kinase 1 (Homo sapiens) (UniProt Q07912).
Given back: 10

Asked: Tell me reported residual activity for CCn1cnc2c(Nc3cccc(Cl)c3)nc(N[C@@H]3CCCC[C@@H]3N)nc21 , tested with Activated CDC42 kinase 1 (Homo sapiens) (UniProt Q07912).
Given back: 4

Asked: Request: residual activity, test system Activated CDC42 kinase 1 (Homo sapiens) (UniProt Q07912), entry CC(C)[C@H](CO)Nc1nc(Nc2cccc(Cl)c2)c2ncn(C(C)C)c2n1
Given back: 14

Asked: Form entry - test system: Activated CDC42 kinase 1 (Homo sapiens) (UniProt Q07912); read-out: residual activity; molecule: c1cc(-c2cnn3cc(-c4ccc(OCCN5CCCCC5)cc4)cnc23)ccn1
Given back: 18

Asked: What is its residual activity for Activated CDC42 kinase 1 (Homo sapiens) (UniProt Q07912)? Entry: O=c1[nH]c2ccccc2n1C1CCN(Cc2ccc(-c3nc4cc5[nH]cnc5cc4nc3-c3ccccc3)cc2)CC1
Given back: 77

Asked: What measured residual activity is associated with CCc1nc(-c2ccc(OC)cc2)[nH]c1-c1ccncc1 on Activated CDC42 kinase 1 (Homo sapiens) (UniProt Q07912)?
Given back: 69

Asked: Could you share what residual activity was measured for C[S+]([O-])c1ccc(-c2nc(-c3ccc(F)cc3)c(-c3ccncc3)[nH]2)cc1 (centres undefined) , tested on Activated CDC42 kinase 1 (Homo sapiens) (UniProt Q07912)?
Given back: 39

Asked: Notebook: pull reported residual activity for Activated CDC42 kinase 1 (Homo sapiens) (UniProt Q07912), entry O=C1c2ccccc2-c2nc3nnnn3nc21
Given back: 80

###

- measurement.target: Ephrin type-A receptor 8 (Homo sapiens)
- assay.conditions: at 1 µM
measure: residual activity (%)
Give just the number in %; leave the unit off.

Asked: Which residual activity is listed for O=c1[nH]c2ccccc2n1C1CCN(Cc2ccc(-c3nc4cc5[nH]cnc5cc4nc3-c3ccccc3)cc2)CC1 ?
Given back: 108

Asked: If you can, please state the reported residual activity value of CCn1cnc2c(Nc3cccc(Cl)c3)nc(N[C@@H]3CCCC[C@@H]3N)nc21 .
Given back: 89

Asked: I'd like to know its residual activity. The compound in question is COc1cc(OC)c(/C=C2\C(=O)Nc3ccccc32)c(OC)c1
Given back: 95

Asked: Would you mind telling me what residual activity value was observed for COC(=O)[C@@]1(O)C[C@H]2O[C@]1(C)n1c3ccccc3c3c4c(c5c6ccccc6n2c5c31)C(=O)NC4 ?
Given back: 78

Asked: Any idea what residual activity was measured for O=C1Nc2ccc3ncsc3c2/C1=C/c1c[nH]cn1 ?
Given back: 95

Asked: Please report the recorded residual activity for C[S+]([O-])c1ccc(-c2nc(-c3ccc(F)cc3)c(-c3ccncc3)[nH]2)cc1 (stereo unspecified) .
Given back: 91

###

- measurement.target: cGMP-dependent protein kinase 1 (Homo sapiens)
- Sequence (whole entry): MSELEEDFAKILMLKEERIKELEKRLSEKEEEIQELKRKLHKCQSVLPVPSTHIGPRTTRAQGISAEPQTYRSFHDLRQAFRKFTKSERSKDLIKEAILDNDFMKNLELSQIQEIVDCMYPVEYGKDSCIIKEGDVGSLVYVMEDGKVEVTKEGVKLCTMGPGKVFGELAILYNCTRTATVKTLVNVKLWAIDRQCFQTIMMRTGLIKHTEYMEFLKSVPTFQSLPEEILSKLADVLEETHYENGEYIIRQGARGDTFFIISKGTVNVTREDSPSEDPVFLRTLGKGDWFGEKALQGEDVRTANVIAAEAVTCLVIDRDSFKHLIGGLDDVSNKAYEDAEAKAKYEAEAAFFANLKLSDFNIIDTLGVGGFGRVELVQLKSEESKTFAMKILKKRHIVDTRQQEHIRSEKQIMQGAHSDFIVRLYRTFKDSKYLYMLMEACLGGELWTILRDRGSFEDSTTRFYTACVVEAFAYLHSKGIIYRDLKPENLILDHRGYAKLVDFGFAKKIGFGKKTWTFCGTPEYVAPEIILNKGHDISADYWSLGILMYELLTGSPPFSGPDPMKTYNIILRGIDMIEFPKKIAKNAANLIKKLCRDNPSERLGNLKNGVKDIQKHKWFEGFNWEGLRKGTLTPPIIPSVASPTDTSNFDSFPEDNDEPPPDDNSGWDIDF
- assay.conditions: at 1 µM
measure: residual activity (%)
Quick note: give the figure in %, leave out the unit.

Asked: Tell me the measured residual activity of C[S+]([O-])c1ccc(-c2nc(-c3ccc(F)cc3)c(-c3ccncc3)[nH]2)cc1 (stereo unspecified) , please.
Given back: 101

Asked: residual activity for COc1cc(OC)c(/C=C2\C(=O)Nc3ccccc32)c(OC)c1 ?
Given back: 97

Asked: Name the recorded residual activity for CC(C)(C)c1cc(C=C(C#N)C#N)cc(Br)c1O .
Given back: 107

Asked: // residual activity lookup, key: O=c1[nH]c2ccccc2n1C1CCN(Cc2ccc(-c3nc4cc5[nH]cnc5cc4nc3-c3ccccc3)cc2)CC1
Given back: 108

Asked: Which residual activity value belongs to O=C1Nc2ccc3ncsc3c2/C1=C/c1c[nH]cn1 ?
Given back: 13

Asked: What residual activity value was documented for this compound, O=[N+]([O-])/C=C/c1ccc2c(c1)OCO2 ?
Given back: 107

###

Can you tell me residual activity for the items I'm about to list?
- measurement.target: Tyrosine-protein kinase Fgr (Homo sapiens) (UniProt P09769)
- Sequence (P09769 2-529 limits assumed): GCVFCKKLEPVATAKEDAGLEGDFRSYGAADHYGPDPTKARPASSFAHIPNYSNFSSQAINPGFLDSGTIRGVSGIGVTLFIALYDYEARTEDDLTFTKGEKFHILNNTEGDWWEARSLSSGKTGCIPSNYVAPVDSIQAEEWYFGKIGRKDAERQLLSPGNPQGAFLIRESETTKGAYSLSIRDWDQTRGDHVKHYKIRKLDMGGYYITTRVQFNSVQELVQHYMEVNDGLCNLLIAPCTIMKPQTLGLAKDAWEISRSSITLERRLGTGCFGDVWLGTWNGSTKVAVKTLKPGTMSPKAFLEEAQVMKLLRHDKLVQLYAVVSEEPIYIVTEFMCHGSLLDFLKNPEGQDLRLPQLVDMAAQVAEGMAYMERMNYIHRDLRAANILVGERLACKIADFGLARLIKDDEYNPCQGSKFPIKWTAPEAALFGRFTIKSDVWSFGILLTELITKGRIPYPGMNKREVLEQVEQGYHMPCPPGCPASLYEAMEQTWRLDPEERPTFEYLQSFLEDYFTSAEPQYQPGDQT
- assay.conditions: at 1 µM
Report only the number, with the unit % understood.

Asked: Which residual activity value belongs to O=[N+]([O-])/C=C/c1ccc2c(c1)OCO2 ?
Given back: 90

Asked: Entry CCc1nc(-c2ccc(OC)cc2)[nH]c1-c1ccncc1 has what residual activity?
Given back: 111

Asked: What value of residual activity has been recorded for this entry: O=c1[nH]c2ccccc2n1C1CCN(Cc2ccc(-c3nc4cc5[nH]cnc5cc4nc3-c3ccccc3)cc2)CC1
Given back: 107

Attribution: ChEMBL document CHEMBL2218924
